- ASSAY DETAILS: Unidirectional Caco-2 cell permeability assay
- Format: in vitro ADME
- CONDITION CONTEXT: human, Caco-2, 10 μM, apical pH 6.5, basolateral pH 7.4, 1 hour, 37° C., n=2
This section presents molecules with their documented Papp A→B at 1 h, 10 μM values.

{"columns": ["MOLECULE", "Papp A→B at 1 h, 10 μM"],
 "data": [
  ["Cc1cc(O)ccc1-c1cccc(C(O)CCN2CCC(=O)N2CCc2ccc(C(=O)O)cc2)c1 (racemic) [1; racemate]", "6.8 nm/s"],
  ["Cc1cc(C(N)=O)ccc1-c1cccc(C(O)CCN2CCC(=O)N2CCc2ccc(-c3nnn[nH]3)cc2)c1 (single isomer, unassigned) [9; isomer 2]", "< 1 nm/s"],
  ["Cc1cc(S(N)(=O)=O)ccc1-c1cccc(C(O)CCN2CCC(=O)N2CCc2ccc(C(=O)O)cc2)c1 (racemic) [3; racemate]", "3 nm/s"],
  ["Cc1cc(C(N)=O)ccc1-c1cccc(C(O)CCN2CCC(=O)N2CCc2ccc(C(=O)O)c(O)c2)c1 (single isomer, unassigned) [7; isomer 1]", "< 1 nm/s"],
  ["Cc1cc(C(N)=O)ccc1-c1cccc(C(O)CCN2CCC(=O)N2CCc2ccc(C(=O)O)cc2)c1 (single isomer, unassigned) [2; isomer 1]", "< 2.9 nm/s"],
  ["Cc1cc(C(N)=O)ccc1-c1cccc(C(O)CCN2CCC(=O)N2CCc2ccc(-c3nnn[nH]3)cc2)c1 (racemic) [9; racemate]", "< 1 nm/s"],
  ["Cc1cc(C(N)=O)ccc1-c1cccc(C(O)CCN2CCC(=O)N2CCc2cc(F)c(C(=O)O)c(F)c2)c1 (single isomer, unassigned) [5; isomer 2]", "< 1 nm/s"]
]}
